# System: ACHN renal
# procedureSummary: NCI-60 one-dose screen, 48 h
# assayConditions: 10 µM unless noted
The panel holds about 83,000 compounds, 20% with a hit somewhere; the sample as a whole holds those more often. Activity calls are given as the source filed them. How the source made its calls: active means growth percent below 10; inactive means the rest.
Your answer must be one of the following: active, inactive

compound: S=C(Cc1ccccc1)N1CCN(c2ccccc2Cl)CC1
experimentalSystem: ACHN renal
classification: inactive

compound: O=C1NN(C(=O)c2ccccc2)C(c2ccc(Cl)c(Cl)c2)=C/C1=C\c1ccccc1[N+](=O)[O-]
experimentalSystem: ACHN renal
classification: inactive

compound: Cc1ccc(C)c2c1SC1=NNC(Oc3ccc(Cl)cc3)=C(C#N)C(=N)N12
experimentalSystem: ACHN renal
classification: inactive

compound: Cc1cccc(N=NC(=S)NNc2cccc(C)c2)c1
experimentalSystem: ACHN renal
classification: inactive

compound: COc1cnc2c(c1)C(=O)c1c-2n(CCCN2CCN(C)CC2)c(=O)c2cc(Cl)ccc12
experimentalSystem: ACHN renal
classification: inactive

compound: ClC1=NC(Cl)C(Cl)=N/C1=N\c1ncn[nH]1 (stereo not given)
experimentalSystem: ACHN renal
classification: active

# next compound below
Kindly provide the recorded test outcome for the following compound: CC(SC(C)C(=O)N/N=C/c1cccc(Cl)c1)C(=O)N/N=C\c1cccc(Cl)c1 (stereo not given) inactive
